Molecular target: DLL4 extracellular domain (R&D systems, catalog #1506-D4/CF) (UniProt Q9NR61 27-529, limits assumed)
Sequence (Q9NR61 27-529 limits assumed): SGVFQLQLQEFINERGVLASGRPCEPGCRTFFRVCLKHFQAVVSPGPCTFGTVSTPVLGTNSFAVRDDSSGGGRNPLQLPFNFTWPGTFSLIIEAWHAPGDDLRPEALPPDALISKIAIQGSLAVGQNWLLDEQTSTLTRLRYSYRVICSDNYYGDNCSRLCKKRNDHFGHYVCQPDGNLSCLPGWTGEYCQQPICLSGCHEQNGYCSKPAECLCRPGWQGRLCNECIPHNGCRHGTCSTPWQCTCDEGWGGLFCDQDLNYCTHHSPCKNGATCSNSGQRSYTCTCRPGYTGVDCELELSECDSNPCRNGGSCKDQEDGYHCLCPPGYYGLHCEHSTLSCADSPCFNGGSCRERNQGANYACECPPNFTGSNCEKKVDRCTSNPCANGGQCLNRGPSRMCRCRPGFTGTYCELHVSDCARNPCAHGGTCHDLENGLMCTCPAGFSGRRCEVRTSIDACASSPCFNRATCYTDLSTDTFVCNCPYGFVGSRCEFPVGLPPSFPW
Assay: cell-based or functional assay
Record Criterion met whenever % inhibition 10 µg/ml, N = 2 (HUVEC proliferation on coated DLL4) is at 60% or higher; record Criterion not met when lower.

# binder, class-label
records = [
    ("17F3 (antibody, IgG2, V domains shown, Fully human; also used where no isotype is printed) VH: QVQLVQSGAEVKKPGASVKVSCKASGYTFTNYGISWVRQAPGQGLEWMGWINAYNGNTNYAQNLQGRVTMTTDTSTNTAYMELRSLRSDDTAVYYCARVAPAAFFDYWDQGTLVTVSS VL: SYELTQPPSVSVSPGQTASITCSGDKLGDKYVCWYQQKPGQSPVLVIYQDNKRPSGIPERFSGSNSGNTATLIISGTQAMDEADYYCQAWDSSTVFGGGTKLTVL", "Criterion not met"),
    ("4B3 (antibody, IgG4, V domains shown, Fully human; also used where no isotype is printed) VH: QVQLVQSGAEVRKSGASVKVSCKASGYSFTTYDINWVRQATGQGLEWMGWMNPNSGYTDYAQKFQGRVTLTRNMSIDTAYMELSSLRSEDTAVYYCARAYYYDSSAYYLFDYWGQGTLVTVSS VL: DIQMTQSPSSLSASVGDRVTITCRASQGISNYLAWFQQKPGKAPKSLIYAASSLQSGVPSKFSGSGSGTDFTLTISSLQPEDFATYFCQQYISYPLTFGGGTKVEI", "Criterion not met"),
    ("2H10 (antibody, IgG4, V domains shown, Fully human; used for IgG4 rows and where no isotype is printed; also called 2H10 IgG4) VH: QVQLVESGGGVVQPGRSLRLSCAASGFTFSRHGMHWVRQAPGKGLEWVAVVWFDGSNIYYADSVKGRFTISRDNSKNTLYLQMNSLRAEDTAMYYCARDSRIAAADYWGQGTLVTVSS VL: SYELTQPPSVSVSPGQTVSITCSGDKLGDKYVCWYQQKPGQSPVLVIYQESKRPSGIPERFSGSSSGNTATLTISGTQAMDEADYYCQTWDSSLVVFGGGTKLTVL", "Criterion met"),
    ("4B4 (antibody, IgG4, V domains shown, Fully human; used for IgG4 rows and where no isotype is printed; also called 4B4 IgG4; 4B4.1) VH: QVLLIQSGAEVKKPGASVQVSCKASGYTFTNYGVIWVRQAPGQGLEYMGWISAYNGNTNYAQKLQDRVTMTSDTSTTTAYMELRSLRSDDTAVYYCARELGSSFDYWGQGTLVTVSS VL: SYELTQPPSVSVSPGQTARITCSGDALPKKYAYWYQQKSGQAPVLVIYEDIKRPSGIPERFSGSSSGTMATLTISGAQVEDEADYYCFSTDNSGDHSVFGGGTKLTVL", "Criterion met"),
]

Shift focus to the following entry.
[Q] Would you say 12A1 (antibody, IgG4, V domains shown, Fully human; also used where no isotype is printed) VH: QVQLVQSGAEVKRPGASVKVSCKASGYTFTSYGITWVRQAPGQGLEYMGWISTYNGNTDYAQKFQGRVTMTADISTSTAYMELRSLRSDDTAVYYCARERGSYFDYWGQGTLVTVSS VL: SYELTQPPSVSVSPGQTARITCSGDTLPKKYAYWYQQKSGQAPVLVIYEDIKRPSGIPERFSGSSSGTMATLTISGAQVEDEADYYCFSTDSGGNHKFGGGTKLTVL shows % inhibition 10 µg/ml, N = 2 (HUVEC proliferation on coated DLL4) at minimum 60%?
[A] Criterion met

Taken from patent US20100196385A1.
